- System: Spodoptera frugiperda
- assay_remarks: Spodoptera frugiperda - spray test
- Type: in vivo
- test_parameters: in Zea mays, 168 h, read-out: mortality in %
value_type: mortality at 500 g/ha (%)
Numeric answer only, unit % assumed.

// solved cases for mortality at 500 g/ha follow
GET /values?readout=mortality at 500 g/ha&system=Spodoptera frugiperda&item= C[C@H](NC(=O)c1cc(C(F)(F)F)cc(C(F)(F)F)c1)c1ncnn1-c1ncccn1 [Compound I-66]
100

GET /values?readout=mortality at 500 g/ha&system=Spodoptera frugiperda&item= CC(c1ncnn1-c1ncccn1)N(CC1CCC1)C(=O)c1cc(Cl)cc(C(F)(F)F)c1 (stereo not drawn) [Compound I-101]
100

GET /values?readout=mortality at 500 g/ha&system=Spodoptera frugiperda&item= C[C@H](NC(=O)c1cc(Cl)cc(Br)c1)c1ncnn1-c1ccc(Cl)cn1 [Compound I-137]
100

GET /values?readout=mortality at 500 g/ha&system=Spodoptera frugiperda&item= CC(c1ncnn1-c1ncccn1)N(CC1CC1)C(=O)c1cc(Cl)cc(SC(F)(F)F)c1 (stereo not drawn) [Compound I-107]
100

GET /values?readout=mortality at 500 g/ha&system=Spodoptera frugiperda&item= C[C@H](NC(=O)c1cc(C(F)(F)F)cc(C(F)(F)F)c1)c1nc(C(F)(F)F)nn1-c1ccc(Cl)cn1 [Compound I-136]
100

Continuing:
GET /values?readout=mortality at 500 g/ha&system=Spodoptera frugiperda&item= C[C@@H](c1ncnn1-c1ncccn1)N(CC1CC1)C(=O)c1cc(Cl)cc(C(F)(F)F)c1 [Compound I-93]
100

GET /values?readout=mortality at 500 g/ha&system=Spodoptera frugiperda&item= CC(c1ncnn1-c1ncccn1)N(CC#N)C(=O)c1cc(Cl)cc(C(F)(F)F)c1 (stereo not drawn) [Compound I-96]
100

GET /values?readout=mortality at 500 g/ha&system=Spodoptera frugiperda&item= CC(c1ncnn1-c1ncccn1)N(CC1CC1)C(=O)c1cc(C#N)cc(C(F)(F)F)c1 (stereo not drawn) [Compound I-50]
100

GET /values?readout=mortality at 500 g/ha&system=Spodoptera frugiperda&item= Cc1nc(C(C)N(CC2CC2)C(=O)c2cc(Cl)cc(C(F)(F)F)c2)n(-c2ncc(Cl)cn2)n1 (stereo not drawn) [Compound I-78]
100

GET /values?readout=mortality at 500 g/ha&system=Spodoptera frugiperda&item= CC(c1ncnn1-c1ncccn1)N(C)C(=O)c1cc(Cl)cc(C(F)(F)F)c1 (stereo not drawn) [Compound I-100]
100

GET /values?readout=mortality at 500 g/ha&system=Spodoptera frugiperda&item= C[C@H](NC(=O)c1cc(Cl)cc(C(F)(F)F)c1)c1ncnn1-c1ccc(Cl)cn1 [Compound I-120]
100

GET /values?readout=mortality at 500 g/ha&system=Spodoptera frugiperda&item= CC(NC(=O)c1cc(Cl)cc(C#N)c1)c1ncnn1-c1ncccn1 (stereo not drawn) [Compound I-114]
100

GET /values?readout=mortality at 500 g/ha&system=Spodoptera frugiperda&item= C[C@H](NC(=O)c1cc(Cl)cc(C(F)(F)F)c1)c1ncnn1-c1ccc(I)cn1 [Compound I-132]
100

GET /values?readout=mortality at 500 g/ha&system=Spodoptera frugiperda&item= CC(c1ncnn1-c1ncccn1)N(CC1CC1)C(=O)c1cccc(SC(F)(F)F)c1 (stereo not drawn) [Compound I-83]
83

GET /values?readout=mortality at 500 g/ha&system=Spodoptera frugiperda&item= CCN(C(=O)c1cc(Cl)cc(C(F)(F)F)c1)C(C)c1ncnn1-c1ncccn1 (stereo not drawn) [Compound I-97]
100
